- EXPERIMENT_DESCRIPTION: Compound was tested for inhibitory activity against tryptase
- Parameters: species or system Homo sapiens
pKi: −log10 of the molar value.
MEASUREMENT_NAME: pKi

N=C(N)c1ccc2oc(C(=O)N3CCN(C(=O)CC(=O)N4CCN(C(=O)c5cc6cc(C(=N)N)ccc6o5)CC4)CC3)cc2c1 :: 6.19

[I] N=C(N)c1ccc2oc(C(=O)N3CCN(C(=O)CCCC(=O)N4CCN(C(=O)c5cc6cc(C(=N)N)ccc6o5)CC4)CC3)cc2c1
[II] N=C(N)c1ccc2oc(C(=O)N3CCN(C(=O)CCCCC(=O)N4CCN(C(=O)c5cc6cc(C(=N)N)ccc6o5)CC4)CC3)cc2c1
Incoming: Which has the smaller recorded pKi, I or II ? Provide the label of your selected option as the answer.
Outgoing: I
(I: 8.06, II: 9.07)

###

- EXPERIMENTAL_SYSTEM: Tryptase (Homo sapiens, UniProt Q9BZJ3+Q15661+Q9NRR2)
- EXPERIMENT_DESCRIPTION: Inhibition of tryptase activity
- Type: protein assay
MEASUREMENT_NAME: Ki (nM)

N=C(N)c1ccc2oc(C(=O)N3CCN(C(=O)N4CCN(C(=O)c5cc6cc(C(=N)N)ccc6o5)CC4)CC3)cc2c1 :: 460
N=C(N)c1ccc2oc(C(=O)N3CCN(C(=O)CCCCCCCC(=O)N4CCN(C(=O)c5cc6cc(C(=N)N)ccc6o5)CC4)CC3)cc2c1 :: 0.019
N=C(N)NCCCCC(=O)N1CCN(C(=O)COc2ccc(OCC(=O)N3CCN(C(=O)CCCCNC(=N)N)CC3)cc2)CC1 :: 80000

[1] N=C(N)N1CCc2sc(C(=O)N3CCN(C(=O)COc4ccc(OCC(=O)N5CCN(C(=O)c6cc7c(s6)CCN(C(=N)N)C7)CC5)cc4)CC3)cc2C1
[2] N=C(N)c1ccc2sc(C(=O)N3CCN(C(=O)COc4ccc(OCC(=O)N5CCN(C(=O)c6cc7cc(C(=N)N)ccc7s6)CC5)cc4)CC3)cc2c1
[3] O=C(COc1ccc(OCC(=O)N2CCN(C(=O)CC(=O)N3CCNCC3)CC2)cc1)N1CCN(C(=O)CC(=O)N2CCNCC2)CC1
[4] N=C(N)c1ccc2oc(C(=O)N3CCN(C(=O)COc4ccccc4OCC(=O)N4CCN(C(=O)c5cc6cc(C(=N)N)ccc6o5)CC4)CC3)cc2c1
Incoming: Arrange items by their Ki values in increasing order. Answer format: list of labels, ordered as asked.
Outgoing: 2, 1, 4, 3

[I] CN(C)C(=N)c1ccc2oc(C(=O)N3CCN(C(=O)COc4ccc(OCC(=O)N5CCN(C(=O)c6cc7cc(C(=N)N(C)C)ccc7o6)CC5)cc4)CC3)cc2c1
[II] N=C(N)c1ccc2oc(C(=O)N3CCN(C(=O)CCCCCCC(=O)N4CCN(C(=O)c5cc6cc(C(=N)N)ccc6o5)CC4)CC3)cc2c1
[III] N=C(N)c1ccc2oc(C(=O)N3CCN(C(=O)CO[C@H]4CCC[C@@H](OCC(=O)N5CCN(C(=O)c6cc7cc(C(=N)N)ccc7o6)CC5)CCC4)CC3)cc2c1
[IV] N=C(N)c1ccc2oc(C(=O)N3CCN(C(=O)COc4ccccc4)CC3)cc2c1
Incoming: Arrange items by their Ki values in increasing order. Answer format: list of labels, ordered as asked.
Outgoing: III, II, IV, I
(III: 0.029 nM, II: 0.12 nM, IV: 3000 nM, I: 6600 nM)

###

Observed Ki, system Prothrombin (Homo sapiens, UniProt P00734).
MEASUREMENT_NAME: Ki (µM)

N=C(N)c1ccc2oc(C(=O)N3CCN(C(=O)CO[C@H]4CCC[C@@H](OCC(=O)N5CCN(C(=O)c6cc7cc(C(=N)N)ccc7o6)CC5)CCC4)CC3)cc2c1 :: 15
N=C(N)c1ccc2oc(C(=O)N3CCN(C(=O)CCC(=O)N4CCN(C(=O)c5cc6cc(C(=N)N)ccc6o5)CC4)CC3)cc2c1 :: 51
N=C(N)c1ccc2oc(C(=O)N3CCN(C(=O)CCCCC(=O)N4CCN(C(=O)c5cc6cc(C(=N)N)ccc6o5)CC4)CC3)cc2c1 :: 23
N=C(N)c1ccc2oc(C(=O)N3CCN(C(=O)COc4ccc(OCC(=O)N5CCN(C(=O)c6cc7cc(C(=N)N)ccc7o6)CC5)cc4)CC3)cc2c1 :: 32
N=C(N)Nc1ccc2oc(C(=O)N3CCN(C(=O)COc4ccc(OCC(=O)N5CCN(C(=O)c6cc7cc(NC(=N)N)ccc7o6)CC5)cc4)CC3)cc2c1 :: 24

[P] N=C(N)c1ccc2oc(C(=O)N3CCN(C(=O)COc4ccc(OCC(=O)NCc5ccccc5)cc4)CC3)cc2c1
[Q] N=C(N)c1ccc2oc(C(=O)N3CCN(C(=O)COc4ccc(OCC(=O)Nc5ccc(-c6c[nH]cn6)cc5)cc4)CC3)cc2c1
Incoming: Which has the smaller recorded Ki, P or Q ? Provide the label of your selected option as the answer.
Outgoing: Q
(Q: 5.3 µM, P: 28 µM)

###

- EXPERIMENT_DESCRIPTION: Compound was tested for inhibitory activity against tryptase
- Parameters: species or system Homo sapiens
pKi: −log10 of the molar value.
MEASUREMENT_NAME: pKi

N=C(N)c1ccc2oc(C(=O)N3CCN(C(=O)CCC(=O)N4CCN(C(=O)c5cc6cc(C(=N)N)ccc6o5)CC4)CC3)cc2c1 :: 7.82
N=C(N)c1ccc2oc(C(=O)N3CCN(C(=O)COc4ccc(OCC(=O)NCc5ccccc5)cc4)CC3)cc2c1 :: 7.43

[a] N=C(N)c1ccc2oc(C(=O)N3CCN(C(=O)COc4ccc(OCC(=O)Nc5ccc(-c6c[nH]cn6)cc5)cc4)CC3)cc2c1
[b] N=C(N)c1ccc2oc(C(=O)N3CCN(C(=O)CCCCCC(=O)N4CCN(C(=O)c5cc6cc(C(=N)N)ccc6o5)CC4)CC3)cc2c1
Incoming: Which has the smaller recorded pKi, a or b ? Provide the label of your selected option as the answer.
Outgoing: a

###

- EXPERIMENTAL_SYSTEM: Tryptase (Homo sapiens, UniProt Q9BZJ3+Q15661+Q9NRR2)
- EXPERIMENT_DESCRIPTION: Inhibition of tryptase activity
- Assay type: protein assay
MEASUREMENT_NAME: Ki (nM)

A selection of reference data follows.
N=C(N)NCCCCCCC(=O)N1CCN(C(=O)COc2ccc(OCC(=O)N3CCN(C(=O)CCCCCCNC(=N)N)CC3)cc2)CC1 :: 13000
N=C(N)c1ccc2oc(C(=O)N3CCN(C(=O)COc4ccc(OCC(=O)N5CCCCC5)cc4)CC3)cc2c1 :: 60
N=C(N)Nc1ccc2oc(C(=O)N3CCN(C(=O)COc4ccc(OCC(=O)N5CCN(C(=O)c6cc7cc(NC(=N)N)ccc7o6)CC5)cc4)CC3)cc2c1 :: 1100

[1] O=C(COc1ccc(OCC(=O)N2CCN(C(=O)c3cc4c(s3)CCNC4)CC2)cc1)N1CCN(C(=O)c2cc3c(s2)CCNC3)CC1
[2] N=C(N)NCCCCCC(=O)N1CCN(C(=O)COc2ccc(OCC(=O)N3CCN(C(=O)CCCCCNC(=N)N)CC3)cc2)CC1
[3] N=C(N)c1ccc2oc(C(=O)N3CCN(C(=O)COc4ccc(OCC(=O)N5CCN(C(=O)c6cc7cc(C(=N)N)ccc7o6)CC5)cc4)CC3)cc2c1
Incoming: Arrange items by their Ki values in increasing order. Answer format: list of labels, ordered as asked.
Outgoing: 3, 1, 2
(3: 0.057 nM, 1: 970 nM, 2: 23000 nM)

###

- EXPERIMENTAL_SYSTEM: Tryptase (Homo sapiens, UniProt Q9BZJ3+Q15661+Q9NRR2)
- EXPERIMENT_DESCRIPTION: Inhibition of tryptase activity
- Type: protein assay
Overview of recorded Ki for various molecules
# value in nM; strip the unit string

A selection of reference data follows.
N=C(NCc1ccccc1)c1ccc2oc(C(=O)N3CCN(C(=O)COc4ccc(OCC(=O)N5CCN(C(=O)c6cc7cc(C(=N)NCc8ccccc8)ccc7o6)CC5)cc4)CC3)cc2c1 :: 1100
CCOC(=O)COc1ccc(OCC(=O)N2CCN(C(=O)c3cc4cc(C(=N)N)ccc4o3)CC2)cc1 :: 210

Read the next record carefully.
Incoming: Endpoint output: Ki of N=C(N)c1ccc2oc(C(=O)N3CCN(C(=O)COc4ccc(OCC(=O)N5CCNCC5)cc4)CC3)cc2c1 . Value?
Outgoing: 67
